# Test description: Protein binding in human plasma by equilibrium dialysis method
# Assay type: ADME, cell-free
# Condition description: read-out: PPB (converted)
Readout: fraction unbound
# answer = number (no unit)

In plain terms, O=C(NCc1ccc(OC(F)(F)F)c(Cl)c1)c1ccc(S(=O)(=O)Nc2nccs2)c(F)c1 has a documented fraction unbound of 0.002
